Test: In vitro cytotoxicity assay (XTT), B16-F10
Conditions: mouse, B16-F10 mouse melanocyte cells
RESULT_TYPE: EC50

Note EC50 for the compound shown: CC(C)=CCC/C(C)=C/CC/C(C)=C/CC/C=C(\C)CC/C=C(\C)CCC=C(C)C > 100 µg/mL

----------
Assay: In vitro cytotoxicity assay (XTT), U937
Conditions: human
RESULT_TYPE: viability at 100 μg/ml (%)
Entry rule: numbers only, all in %.

Specify measured viability at 100 μg/ml for CC(C)=CCC/C(C)=C/CC/C(C)=C/CC/C=C(\C)CC/C=C(\C)CCC=C(C)C [Squalene, squalene] . 100

----------
Test: In vitro cytotoxicity assay (XTT), B16-F10
Conditions: mouse, B16-F10 melanocyte cells
RESULT_TYPE: viability at 100 μg/ml (%)
Form entry: value (%) — number only.

Given CC(C)=CCC/C(C)=C/CC/C(C)=C/CC/C=C(\C)CC/C=C(\C)CCC=C(C)C , respond with its viability at 100 μg/ml. 100

----------
Experiment: In vitro cytotoxicity assay (XTT), U937
Conditions: human
Numbered stars: 1 amine (or outer) side, 2 acyl side, 3 side chain; on linkers, the order of the positions; unused ones are H or OH. Bridge positions count the residues as written; N and C are the ends. Square brackets hold non-standard residues; d marks the D form. Peptide text beside a SMILES is read from it. I, II: the chains in the order shown. Actinocin(9to1) = Cc1c2oc3c(C)ccc(C(=O)[*:1])c3nc-2c(C(=O)[*:2])c(N)c1=O; NMeV = CN[C@H](C(=O)O)C(C)C; Sar = CNCC(=O)O
RESULT_TYPE: EC50 (ng/mL)
Write the number in ng/mL without appending the unit.

// Input: Cc1c2oc3c(C)ccc(C(=O)N[C@@H]4C(=O)N[C@H](C(C)C)C(=O)N5CCC[C@H]5C(=O)N(C)CC(=O)N(C)[C@@H](C(C)C)C(=O)O[C@@H]4C)c3nc-2c(C(=O)N[C@@H]2C(=O)N[C@H](C(C)C)C(=O)N3CCC[C@H]3C(=O)N(C)CC(=O)N(C)[C@@H](C(C)C)C(=O)O[C@@H]2C)c(N)c1=O [actinomycin D, reference compound] (I: T[dV]P[Sar][NMeV] / II: T[dV]P[Sar][NMeV]; ester I:1-I:C, II:1-II:C; linker I:N-II:N via Actinocin(9to1)) . Output its EC50 only. 4.5

----------
Test: DPPH antioxidant assay
Format: biochemical
Settings: DPPH, 550 nm
So I've got a bunch of molecules here, and I need their Antioxidant IC50 values.
Please give a number only; it is taken to be in µg/mL.

Retrieve Antioxidant IC50 measured for O=C(O)c1cc(O)c(O)c(O)c1 [Gallic acid, gallic acid] and print it. 0.8

Please report Antioxidant IC50 for the following molecule: O=C1O[C@H]([C@@H](O)CO)C(O)=C1O [vitamin C, reference compound] 1.9

Tell me its Antioxidant IC50 given O=c1c(O)c(-c2cc(O)c(O)c(O)c2)oc2cc(O)cc(O)c12 [Myricetin, myricetin] as the entry. 0.9
